Hello, the source for this data is PubChem BioAssay (NCI), in case you need it.

# System: NCI-H522 lung
# EXPERIMENTAL PROTOCOL: NCI tumour cell line growth inhibition, 48 h; in the data active = GI50 below about 0.43 µM; inactive = the rest
// one of T for active, F for inactive, no free text

Example entries and their recorded answers appear below.
[
  {
    "COMPOUND": "COc1ccccc1Oc1nccc(-c2c(-c3ccc(F)cc3)ncn2C2CCNCC2)n1",
    "GROUP": "F"
  },
  {
    "COMPOUND": "CCSCC1CC(O)(c2ccccc2)C(c2ccccc2)C(c2ccc(F)cc2)O1 (stereo unspecified)",
    "GROUP": "F"
  },
  {
    "COMPOUND": "COc1cc(/C=C/c2cc(/C=C/c3ccc(O)c(OC)c3)n(C(=O)c3ccccc3Br)n2)ccc1O",
    "GROUP": "F"
  },
  {
    "COMPOUND": "C=C(CN1CCc2[nH]c3ccc(F)cc3c2C1)c1ccc(C(=O)Nc2ccccc2N)cc1",
    "GROUP": "T"
  },
  {
    "COMPOUND": "COc1ccc(C(O)c2cc3c(N)c(C(=O)Nc4cccc5ccccc45)sc3nc2C)cc1 (stereo unspecified)",
    "GROUP": "T"
  }
]

Data request: Assay result, entry COCCOC1=C(Cl)C(=O)c2ccccc2C1=O — outcome?
Data returned: F

Data request: Assay result, entry CC(C)[C@@H]1CC[C@]2(CO2)[C@@H]2C(=O)OCC(C(=O)O)=C[C@H]21 — outcome?
Data returned: T

Data request: Assay result, entry CN1CCN(c2c(F)cc(NC3=C(Cl)C(=O)c4ncccc4C3=O)cc2F)CC1 — outcome?
Data returned: F

----------
# System: M14 melanoma
# EXPERIMENTAL PROTOCOL: NCI tumour cell line growth inhibition, 48 h; in the data active means GI50 below about 0.43 µM; inactive means the rest
// one of active, inactive, no free text

Example entries and their recorded answers appear below.
[
  {
    "COMPOUND": "Cc1cccc(Cn2cc(CO)c3cnccc32)c1",
    "GROUP": "inactive"
  },
  {
    "COMPOUND": "CCSCC1CC(O)(c2ccccc2)C(c2ccccc2)C(c2ccc(F)cc2)O1 (stereo unspecified)",
    "GROUP": "inactive"
  },
  {
    "COMPOUND": "CCCCCCCCCCCC[C@@H](O)[C@H]1CC[C@H]([C@H](O)CC[C@H](O)[C@@H]2CC[C@@H](CCCCCCCC3=C[C@H](C)OC3=O)O2)O1",
    "GROUP": "inactive"
  },
  {
    "COMPOUND": "O=C(O)CN(CCN(CC(=O)O)CC(=O)O)CC(=O)O.[Mn+2]",
    "GROUP": "inactive"
  },
  {
    "COMPOUND": "Nc1nc(=S)c2ncn(C3OC(COP(=O)(O)O)C(O)C3O)c2[nH]1 (stereo unspecified)",
    "GROUP": "inactive"
  },
  {
    "COMPOUND": "COc1ccc(Nc2cnc3cc(N)cc(N)c3n2)cc1",
    "GROUP": "inactive"
  },
  {
    "COMPOUND": "C#Cc1ccc(-n2c(/C=C/c3ccc(O)cc3)nc3ncccc3c2=O)cc1",
    "GROUP": "inactive"
  },
  {
    "COMPOUND": "CN1CCN(c2c(F)cc(NC3=C(Cl)C(=O)c4ncccc4C3=O)cc2F)CC1",
    "GROUP": "inactive"
  },
  {
    "COMPOUND": "COc1ccc(C(O)c2cc3c(N)c(C(=O)Nc4cccc5ccccc45)sc3nc2C)cc1 (stereo unspecified)",
    "GROUP": "active"
  },
  {
    "COMPOUND": "COc1ccccc1CNCCN1C(=O)c2ccc3c4c(ccc(c24)C1=O)C(=O)N(CCNCc1ccccc1OC)C3=O",
    "GROUP": "active"
  }
]

Attention now shifts to the item below.
Data request: Assay result, entry CC(=O)Oc1ccc(C2=Cc3ccc(OC(C)=O)cc3OC2C)cc1 (stereo unspecified) — outcome?
Data returned: inactive
